- Tested on: CD8+ and CD4+ T cells (autologous CD3+ Pan-T cells isolated from human normal PBMCs)
- experiment-notes: Exogenous autologous normal donor restimulation assay (15-mer overlapping peptide pools on CD1c+ dendritic cells, TNFα/IFNγ flow cytometry)
- Type: cell-based
- measurement-context: Table 25; 15-mer overlapping peptide pool; highest frequency across normal donors
readout-name: Maximum Frequency of TNFα/IFNγ Double Positive CD4+ T cells

sequence-string	subject-of-test	endpoint-result
DYWAQKEKISIPRTHLC (listed as Homo sapiens) [AS6, ACSM1 alternative splicing]	CD8+ and CD4+ T cells (autologous CD3+ Pan-T cells isolated from human normal PBMCs)	0.380
VAMMVPDRQVHYDFGL (listed as Homo sapiens) [AS3, DNAH8 alternative splicing]	CD8+ and CD4+ T cells (autologous CD3+ Pan-T cells isolated from human normal PBMCs)	0.054
KMHFSLKEHPPPPCPP (listed as Homo sapiens) [FUS19, GTF2F1->PSPN gene fusion]	CD8+ and CD4+ T cells (autologous CD3+ Pan-T cells isolated from human normal PBMCs)	0.013
GVPGDSTRRAVRRMNTF (listed as Homo sapiens) [Neoantigen P16]	CD8+ and CD4+ T cells (autologous CD3+ Pan-T cells isolated from human normal PBMCs)	0.039

Input line: Data request, read-out Maximum Frequency of TNFα/IFNγ Double Positive CD4+ T cells, for TMPAILKLQKNCLLSL (listed as Homo sapiens) [MS8]
Output line: 0.40

Input line: Data request, read-out Maximum Frequency of TNFα/IFNγ Double Positive CD4+ T cells, for GNTTLQQLGEASQAPSGSLIPLRLPLLWEVRG (listed as Homo sapiens) [AS16, LRRC45 alternative splicing]
Output line: 0.140

Input line: Data request, read-out Maximum Frequency of TNFα/IFNγ Double Positive CD4+ T cells, for FVQGKDWGLKKFIRRDF (listed as Homo sapiens) [Neoantigen M10, SPOP F133L]
Output line: 0.1

Input line: Data request, read-out Maximum Frequency of TNFα/IFNγ Double Positive CD4+ T cells, for DGHSYTSKVNCLLLQDGFHGCVSITGAAGRRNLSIFLFLMLCKLEFHAC (listed as Homo sapiens) [AS55, SPOCK1 alternative splicing]
Output line: 0.310

Input line: Data request, read-out Maximum Frequency of TNFα/IFNγ Double Positive CD4+ T cells, for FVQGKDWGVKKFIRRDF (listed as Homo sapiens) [Neoantigen M12, SPOP F133V]
Output line: 0.05

Input line: Data request, read-out Maximum Frequency of TNFα/IFNγ Double Positive CD4+ T cells, for NSKMALNSEALSVVSE (listed as Homo sapiens) [FUS5, TMPRSS2->ERG gene fusion]
Output line: 0.048

Input line: Data request, read-out Maximum Frequency of TNFα/IFNγ Double Positive CD4+ T cells, for EAFQRAAGEGGPGRGGARRGARVLQSPFCRAGAGEWLGHQSLR (listed as Homo sapiens) [AS41, RHPN1 alternative splicing]
Output line: 0.022

Input line: Data request, read-out Maximum Frequency of TNFα/IFNγ Double Positive CD4+ T cells, for TEISCCTLSSEENEYLPRPEWQLQ (listed as Homo sapiens) [FUS3, MSMB->NCOA4 gene fusion]
Output line: 0.033

====

- Tested on: CD8+ and CD4+ T cells (autologous CD3+ Pan-T cells isolated from human normal PBMCs)
- experiment-notes: Exogenous autologous normal donor restimulation assay (15-mer overlapping peptide pools on CD1c+ dendritic cells, TNFα/IFNγ flow cytometry)
- Format: cell-based
- measurement-context: Table 25; 15-mer overlapping peptide pool; highest frequency across normal donors
Measured Maximum Frequency of TNFα/IFNγ Double Positive CD8+ T cells values are reported for all entries that follow.
Just the number.

Please review the entries below; each comes with its answer.
sequence-string	endpoint-result
DYWAQKEKISIPRTHLC (listed as Homo sapiens) [AS6, ACSM1 alternative splicing]	0.078
RTALTHNQDFSIYRLCCKRGSLCHASQARSPAFPKPVRPLPAPITRITPQLGGQSDSSQPLLTTGRPQGWQDQALRHTQQASPASCATITIPIHSAALGDHSGDPGPAWDTCPPLPLTTLIPRAPPPYGDSTARSWPSRCGPLG [MS3]	0.47

Here is another sequence to look at.
Input line: Data request, read-out Maximum Frequency of TNFα/IFNγ Double Positive CD8+ T cells, for VLRFLDLKVRYLHS (listed as Homo sapiens) [AS15, LRRC45 alternative splicing]
Output line: 0.061
